- Assay text: Solubility of the compound in 10%DMSO/50%PEG400/40%H2O
- Assay type: physicochemical
Measured endpoint: solubility (µg/mL)
Numbers only, in µg/mL.

Provide solubility value for the following compound: CN1CCN(CC(=O)n2cc(/C(C#N)=C/c3cccc4cnccc34)c3ccccc32)CC1.O=C(O)C(F)(F)F
8000

* * *

Kindly state fold change (FC) for each of the entries shown.
- System: BJ
- Assay text: Induction of autophagy in transformed human BJ cells assessed as increase in LC3-2 to LC3-1 ratio at 5 uM after 24 hrs by Western blot analysis relative to control
- Assay type: functional

mol_smiles=N#C/C(=C\c1cccc2cnccc12)c1cn(C(=O)C2CCNCC2)c2ccccc12 measured_endpoint="fold change (FC)" result=7.3

I need fold change (FC) for every entry listed below, if you could help.
1. CN1CCN(CC(=O)n2cc(/C(C#N)=C/c3cccc4cnccc34)c3ccccc32)CC1
2. Cn1cc(/C(C#N)=C/c2cccc3cnccc23)c2ccccc21
3. CCN(CC)C(=O)n1cc(/C(C#N)=C/c2cccc3cnccc23)c2ccccc21
4. CN1CCN(C(=O)Cn2cc(/C(C#N)=C/c3cccc4cnccc34)c3ccccc32)CC1

1: 5; 2: 1.6; 3: 0.9; 4: 1.9
